# protocolDescription: in vivo
# assaySetup: male, SD, rat, plasma, iv, 0.5 mg/kg

molecule	AUC(0-inf)
C[C@@H]1[C@H](O)[C@@H](C)/C=C/C=C/C=C/C=C/C=C/C=C/C=C/[C@H](O[C@@H]2O[C@H](C)[C@@H](O)[C@H](N)[C@@H]2O)C[C@@H]2O[C@](O)(C[C@@H](O)C[C@@H](O)[C@H](O)CC[C@@H](O)C[C@@H](O)CC(=O)O[C@H]1C)C[C@H](O)[C@H]2C(=O)O [Amphotericin B, amphotericin B]	1680 ng·h/mL

* * *

# protocolDescription: in vivo
# assaySetup: male, SD, rat, in vivo, iv, 1 mg/kg

compound	MRT inf
C[C@@H]1[C@H](O)[C@@H](C)/C=C/C=C/CC/C=C/C=C/C=C/C=C/[C@H](O[C@@H]2O[C@H](C)[C@@H](O)[C@H](N)[C@@H]2O)C[C@@H]2O[C@](O)(C[C@@H](O)[C@H](O)CC[C@@H](O)C[C@@H](O)C[C@@H](O)CC(=O)O[C@H]1C)C[C@H](O)[C@H]2C(=O)O [Nystatin A1, nystatin A1]	48 min

* * *

Each entry below carries its recorded LD50 at 7 days.
# protocolDescription: Single intravenous dose acute toxicity
# Assay type: in vivo, mice
# assaySetup: ICR, mouse, in vivo; female mice, single intravenous administration; read-out: median lethal dose (LD50)

compound	LD50 at 7 days
CC(=O)NC1C(OC2C(C)OC(OC3C=CC=CC=CC=CC=CC=CC=CC(C)C(O)C(C)C(C)OC(=O)CC(O)CC(O)CC(O)CCC(O)C(O)CC4(O)CC(O)C(C(=O)O)C(C3)O4)C(O)C2N)OC(CO)C(O)C1O (centres unmarked) [NPP B1, Nystatin-like Pseudonocardia polyene B1]	2.95 mg/kg
C[C@@H]1[C@H](O)[C@@H](C)/C=C/C=C/C=C/C=C/C=C/C=C/C=C/[C@H](O[C@@H]2O[C@H](C)[C@@H](O)[C@H](N)[C@@H]2O)C[C@@H]2O[C@](O)(C[C@@H](O)C[C@@H](O)[C@H](O)CC[C@@H](O)C[C@@H](O)CC(=O)O[C@H]1C)C[C@H](O)[C@H]2C(=O)O [Amphotericin B, amphotericin B]	1.6 mg/kg

* * *

# protocolDescription: 7-day repeated intravenous dose toxicity
# Format: in vivo, mice
# assaySetup: both sexes, ICR, mouse, in vivo; mice, 7-day repeated intravenous doses; read-out: MTD, maximal tolerated dose
# reported MTD at 7 days; entries follow
quantityMeasured: MTD at 7 days

molecule	endpointValue
C[C@@H]1[C@H](O)[C@@H](C)/C=C/C=C/C=C/C=C/C=C/C=C/C=C/[C@H](O[C@@H]2O[C@H](C)[C@@H](O)[C@H](N)[C@@H]2O)C[C@@H]2O[C@](O)(C[C@@H](O)C[C@@H](O)[C@H](O)CC[C@@H](O)C[C@@H](O)CC(=O)O[C@H]1C)C[C@H](O)[C@H]2C(=O)O	1.5 mg/kg
CC(=O)NC1C(OC2C(C)OC(OC3C=CC=CC=CC=CCCC=CC=CC(C)C(O)C(C)C(C)OC(=O)CC(O)CC(O)CC(O)CCC(O)C(O)CC4(O)CC(O)C(C(=O)O)C(C3)O4)C(O)C2N)OC(CO)C(O)C1O (stereo not shown)	5 to 10 mg/kg
CC(=O)NC1C(OC2C(C)OC(OC3C=CC=CC=CC=CC=CC=CC=CC(C)C(O)C(C)C(C)OC(=O)CC(O)CC(O)CC(O)CCC(O)C(O)CC4(O)CC(O)C(C(=O)O)C(C3)O4)C(O)C2N)OC(CO)C(O)C1O (stereo not shown)	> 1.5 mg/kg
C[C@@H]1[C@H](O)[C@@H](C)/C=C/C=C/CC/C=C/C=C/C=C/C=C/[C@H](O[C@@H]2O[C@H](C)[C@@H](O)[C@H](N)[C@@H]2O)C[C@@H]2O[C@](O)(C[C@@H](O)[C@H](O)CC[C@@H](O)C[C@@H](O)C[C@@H](O)CC(=O)O[C@H]1C)C[C@H](O)[C@H]2C(=O)O	2 to 4 mg/kg
